Test: modulators of S6 phosphorylation in cells, primary screen, cell-based, A549, cytoblot, luminescence, serum-stimulated (AID 1158);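 note: serum-stimulated A549 lung adenocarcinoma cells; signal is phosphorylated S6 detected by cytoblot immunostaining with HRP secondary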
Details: A549 phospho-S6 cytoblot, 5 h, higher = more signal
Each entry gets Condition not met if its z-score stays under 0.2, and Condition met if its z-score is 0.2 or above.

{"compound": "CO[C@H]1COC(=O)CC=C[C@@H](C)COC(=O)[C@H]2CCCN2C(=O)CC=C[C@H]1C", "classification": "Condition met"}

Evaluate "O=C1C=C[C@@H](O)[C@@H]2[C@@H]3C(=O)N(C4CCCCC4)C(=O)[C@@H]3CC[C@@H]12" : z-score at minimum 0.2?
Condition not met

z-score >= 0.2 for "CC(C)(C)N1C(=O)[C@H]2[C@H]3[C@H](O)[C@H](O)CC(=NNC(=O)OCc4ccccc4)[C@H]3CC[C@H]2C1=O" ?
Condition met

Check this compound for z-score at or above 0.2: "CCOC(=O)CCN1C(=O)[C@H]2[C@@H]3C(=CC[C@H]2C1=O)C(=O)[C@H]1O[C@H]1[C@H]3O"
Condition met

Is the recorded value of z-score equal to or greater than 0.2 for this compound? "CON=C(C)CCC(=O)OC[C@H]1O[C@H](C#Cc2ccccc2)C=C[C@@H]1Oc1ccc(C)cc1"
Condition not met

z-score >= 0.2 for "CC(C)CON=C1C[C@@H](O)[C@@H](O)[C@@H]2[C@@H]3C(=O)N([C@@H](C)c4ccccc4)C(=O)[C@@H]3CC[C@@H]12" ?
Condition not met

Reported z-score at or above 0.2? "CC(C)[C@@H](OCc1ccccc1)[C@H](C)CON=C1[C@H]2CCn3c(=O)n(-c4ccccc4)c(=O)n3[C@H]2[C@H](O)[C@@H]2O[C@H]12"
Condition not met

Answer whether z-score of "CC(C)CON=C1C[C@@H](O)[C@@H](O)[C@@H]2[C@@H]3C(=O)N(c4ccc(F)cc4F)C(=O)[C@@H]3CC[C@@H]12" is greater than or equal to 0.2.
Condition not met

Does the reported z-score for C[C@]12CCC3c4ccc(OCC5CO5)cc4CCC3C1CC[C@@H]2O (stereo not given in full) fall at or above the 0.2 mark?
Condition met

###

Experiment: S. cerevisiae RM11-1a growth modifiers, primary screen, strain RM11-1a, OD600, basal, 24 h (AID 1177);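 note: cultures grown under basal conditions with no added stressor; test concentration not given here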
Settings: OD600, 24 h, higher = more signal, called active from +8 up or from −8 down
property: z-score
Reply with just the number.

Examples with answers:
{"compound": "COc1ccc(COC(=O)NN=C2C[C@@H](O)[C@@H](O)[C@@H]3[C@@H]4C(=O)N(C[C@@H]5CCCO5)C(=O)[C@@H]4CC[C@@H]23)cc1", "z-score": 0.513}
{"compound": "COC(=O)[C@H](C)NC(=O)CCC1CC(OC(=O)NCc2cccc3ccccc23)CC2(CCCC(COC(=O)NCc3cccc(C(F)(F)F)c3)O2)O1 (stereo partly drawn)", "z-score": -0.968}
{"compound": "O=C1C2=CC[C@H]3C(=O)N(c4ccc(F)cc4F)C(=O)[C@H]3[C@H]2[C@H](O)[C@@H]2O[C@H]12", "z-score": -0.592}

Query "CC(C)=CCCC(C)=CCON=C1C[C@@H](O)[C@@H](O)[C@@H]2[C@@H]3C(=O)N(c4cccc(Oc5ccccc5)c4)C(=O)[C@@H]3CC[C@H]12" yields z-score of 0.668

Lab book: z-score of "CC(C)CON=C1C[C@@H](O)[C@@H](O)[C@@H]2[C@@H]3C(=O)N(c4ccc(F)cc4F)C(=O)[C@@H]3CC[C@@H]12" noted as -1.22

The compound listed as "O=C1C=C[C@@H](O)[C@@H]2[C@@H]3C(=O)N(C4CCCCC4)C(=O)[C@@H]3CC[C@@H]12" shows z-score equal to 0.246

Input "CCOC(=O)CCN1C(=O)[C@H]2[C@H]3[C@H](O)[C@H](O)CC(=NO[C@@H]4O[C@H](CO)[C@@H](O)[C@H](O)[C@H]4O)[C@@H]3CC[C@H]2C1=O" . Output z-score: -0.445

Sure, the documented z-score for "CON=C1c2cc(OC)ccc2O[C@H](c2cccc(OC)c2)[C@H]1O" is -0.175

Data point: "O=C1C=C[C@@H](O)[C@@H]2[C@@H]3C(=O)N(c4cccc(Oc5ccccc5)c4)C(=O)[C@@H]3CC[C@@H]12" ; z-score = -0.518

// sample "COc1ccc(OC[C@H]2CN3[C@@H](CC[C@@H](C)[C@@H]3c3ccc(Br)cc3)C(=O)O2)cc1" , its z-score was -0.13

COC(=O)C(C(=O)OC)C1CCCC(=O)C1 (stereo not drawn) has a reported z-score of 0.386

Reported z-score for "CC(CCN1CCCc2nc(C)c(C)cc21)=NO[C@H](C)c1cn([C@H](CO)Cc2ccccc2)nn1" was 0.512

Value of z-score reported for the compound "COc1ccc(O[C@H]2C=C[C@@H](c3ccccc3)O[C@@H]2CON=C2c3cc(OC)ccc3O[C@H](c3cccc(OC)c3)[C@H]2O)cc1" is 0.041

z-score for CCN1C(=O)[C@H]2[C@H]3[C@H](O)[C@H](O)CC(=NOC(C)CN4CCCc5nc(C)c(C)cc54)[C@@H]3CC[C@H]2C1=O (stereo partly drawn) is 0.49

The compound listed as "CC(=O)OC[C@H]1O[C@@H](ON=C(C)C)[C@H](OC(C)=O)[C@@H](OC(C)=O)[C@@H]1OC(C)=O" shows z-score equal to 0.0958

// "O=C1C=C[C@@H](O)[C@@H]2[C@@H]3C(=O)N(Cc4ccc5c(c4)OCO5)C(=O)[C@@H]3CC[C@@H]12" : z-score value = -0.129

Briefly, z-score measured for "C[C@@H]1CC[C@@H](C(=O)O)N[C@H]1c1cccc(N2CCOCC2)c1" : -0.206

Memo: "COc1cccc([C@H]2Oc3ccc(OC)cc3C(=NOCC[C@@H]3C=C[C@H](OC(C)=O)[C@@H](COC(C)=O)O3)[C@@H]2O)c1" , reported z-score: 0.614

Lab note: measured z-score of "COC(=O)[C@@H]1CC[C@H](C)[C@@H](c2ccc(Br)cc2)N1" was 1.27

Just for reference, PubChem BioAssay is where these values come from.
